- Tested on: Caco-2
- protocolDescription: drug sensitivity score (DSS) for viability; higher = more toxic; extreme values may be limits of the assay
- conditionLabel: 72 h
The molecules listed here are annotated with their drug sensitivity score.
Please give only the number in your answer, with no unit.

Field: example entries. Status: answers known.
COc1ccc(CCN)cc1OC
2.9
C[C@H](N)C(=O)O
0
O=C(OCC(O)CO)c1ccccc1Nc1ccnc2c(C(F)(F)F)cccc12 (stereo not drawn)
0
COC(=O)N[C@H](C(=O)N1CC2(CC2)C[C@H]1c1nc(-c2ccc3c(c2)C(F)(F)c2cc(-c4ccc5[nH]c([C@@H]6[C@H]7CC[C@H](C7)N6C(=O)[C@@H](NC(=O)OC)C(C)C)nc5c4)ccc2-3)c[nH]1)C(C)C
0
CC(=O)Nc1cccc(-n2c(=O)n(C3CC3)c(=O)c3c(Nc4ccc(I)cc4F)n(C)c(=O)c(C)c32)c1
26.5

Dear colleague, I am looking for the recorded drug sensitivity score of the following molecule: Clc1ccc(COC(Cn2ccnc2)c2ccc(Cl)cc2Cl)cc1 (stereo not drawn) 2.5

Dear colleague, I am looking for the recorded drug sensitivity score of the following molecule: CCN1C(=O)CNc2ncc(-c3ccc(-c4nc[nH]n4)nc3C)nc21 12.7

Dear colleague, I am looking for the recorded drug sensitivity score of the following molecule: Nc1ncnc2nc(-c3ccc(N4CCOCC4)nc3)cc(-c3cccc(Br)c3)c12 0

Dear colleague, I am looking for the recorded drug sensitivity score of the following molecule: O=C(O)c1cccc(-c2noc(-c3ccccc3F)n2)c1 0

Dear colleague, I am looking for the recorded drug sensitivity score of the following molecule: CC(C)=CCC[C@](C)(O)[C@H]1CC[C@]2(C)[C@@H]1[C@H](O)C[C@@H]1[C@@]3(C)CC[C@H](O)C(C)(C)[C@@H]3[C@@H](O)C[C@]12C 0

Dear colleague, I am looking for the recorded drug sensitivity score of the following molecule: COc1ccc2cc1Oc1ccc(cc1)C[C@H]1c3cc(c(OC)cc3CCN1C)Oc1c(OC)c(OC)cc3c1[C@H](C2)N(C)CC3 0.7

Dear colleague, I am looking for the recorded drug sensitivity score of the following molecule: CC#CC(=O)N1CCC[C@H]1c1nc(-c2ccc(C(=O)Nc3ccccn3)cc2)c2c(N)nccn12 0

* * *

The compounds listed here are annotated with their drug-induced phospholipidosis.
- Test system: A549-ACE2
- protocolDescription: drug-induced phospholipidosis relative to tamoxifen; higher = more phospholipidosis
- conditionLabel: 6.66667 µM; 72 h
Answer in %, number only, no unit symbol.

CN1CCN(CCCN2c3ccccc3Sc3ccc(Cl)cc32)CC1 [prochlorperazine]
75
C=CC(=O)N1CCN(C(=O)CNc2cc(I)c(Cl)cc2O)CC1 [K-Ras(G12C)-inhibitor-12]
8.06
CCN(CC)CC1CCN(c2ncc3ncnc(Nc4ccc(F)c(Cl)c4)c3n2)CC1 [BIBU-1361]
111

Dear colleague, I am looking for the recorded drug-induced phospholipidosis of the following compound: COc1ccc2cc1Oc1ccc(cc1)C[C@H]1c3cc(c(OC)cc3CCN1C)Oc1c(OC)c(OC)cc3c1[C@H](C2)N(C)CC3 [tetrandrine] 80.6

* * *

- Test system: U2OS
- protocolDescription: cell viability relative to DMSO; higher = less toxic
- conditionLabel: 72 h; 100 nM
measurementKind: cell viability

Field: example entries. Status: answers known.
CC(=O)OC[C@H]1O[C@@](COC(C)=O)(O[C@H]2O[C@H](COC(C)=O)[C@@H](OC(C)=O)[C@H](OC(C)=O)[C@H]2OC(C)=O)[C@@H](OC(C)=O)[C@@H]1OC(C)=O [sucrose-octaacetate]
97.7%
OC[C@H]1O[C@H](O)C[C@@H](O)[C@@H]1O
101%
CC1=C(/C=C/C(C)=C/C=C/C(C)=C/C=O)C(C)(C)CCC1
101%
COCCOC(=O)C1=C(C)NC(C)=C(C(=O)OC/C=C/c2ccccc2)C1c1cccc([N+](=O)[O-])c1 (configuration not stated)
98.8%
COc1cc2c(cc1O)CC[C@@H]1[C@@H]2CC[C@]2(C)[C@@H](O)CC[C@@H]12
102%
Cc1cc(CC(C)CC(C)(C)C)n(O)c(=O)c1 (configuration not stated)
100%

Next, consider the following compound.
Dear colleague, I am looking for the recorded cell viability of the following compound: O=C(Oc1cc(S(=O)(=O)c2ccccc2)ccc1[N+](=O)[O-])c1ccc(Cl)cc1 97.4%
